Would you mind telling me the reported EC50 of each entry?
biological target: Cannabinoid receptor 2 (Homo sapiens, UniProt P34972); assay: Agonist activity at human CB2 receptor expressed in CHO-K1 cells assessed as inhibition of froskolin-stimulated cAMP accumulation incubated for 90 mins by HitHunter chemiluminescence based assay; assay type: functional, cell-based
Sequence (P34972 whole entry): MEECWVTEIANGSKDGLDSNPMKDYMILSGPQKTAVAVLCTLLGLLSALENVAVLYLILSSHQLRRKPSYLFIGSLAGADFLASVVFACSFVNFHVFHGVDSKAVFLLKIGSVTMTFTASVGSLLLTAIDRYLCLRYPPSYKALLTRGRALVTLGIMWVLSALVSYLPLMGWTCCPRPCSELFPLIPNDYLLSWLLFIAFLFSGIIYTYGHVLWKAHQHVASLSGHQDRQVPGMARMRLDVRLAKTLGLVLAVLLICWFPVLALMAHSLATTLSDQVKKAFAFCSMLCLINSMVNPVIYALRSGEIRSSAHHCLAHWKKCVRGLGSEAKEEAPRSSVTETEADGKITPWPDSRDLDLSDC

Here are 3 molecules together with their reported answers.
-- ask I'd like to know its EC50. The molecule in question is `Cc1c(Br)cn(Cc2ccc(F)cc2)c(=O)c1NC(=O)C1CCCCCC1`
-- reply > 10 µM

-- ask Lookup `Cc1c(Br)cn(Cc2cn(CCCCCn3c(C)c(Br)cc(C(=O)NC4CCCCCC4)c3=O)nn2)c(=O)c1NC(=O)C1CCCCCC1`
-- reply > 10 µM

-- ask Lookup `Cc1c(Br)cn(CCCc2cn(CCCn3c(C)c(Br)cc(C(=O)NC4CCCCCC4)c3=O)nn2)c(=O)c1NC(=O)C1CCCCCC1`
-- reply > 10 µM

From here, focus on the item given below.
-- ask I'd like to know its EC50. The molecule in question is `Cc1c(Br)cn(Cc2cn(CCCn3c(C)c(Br)cc(C(=O)NC4CCCCCC4)c3=O)nn2)c(=O)c1NC(=O)C1CCCCCC1`
-- reply > 10 µM

Reference source for all entries: ChEMBL document CHEMBL5143741
